tested on: Staphylococcus aureus; experiment: Antibacterial activity against methicillin-resistant Staphylococcus aureus ATCC 700787 by microdilution technique; assay type: functional
Mark condition met only for MIC values smaller than 8 µg/mL; exact matches and larger values are condition not met.

Solved cases below.
compound.structure.string	class.label
CC1(C)S[C@@H]2[C@H](NC(=O)Cc3ccccc3)C(=O)N2[C@H]1C(=O)O	condition not met
O=C(O)[C@H](Cc1ccccc1)N1C(=O)/C(=C/c2cccc(-c3nccs3)c2)SC1=S	condition not met
O=C(O)[C@H](Cc1ccccc1)N1C(=O)/C(=C/c2cccc(Oc3ccc(Cl)c(Cl)c3)c2)SC1=S	condition met

Take the compound O=C(O)[C@H](Cc1ccccc1)N1C(=O)/C(=C/c2ccccc2Oc2ccccc2)SC1=S and say whether its MIC is less than 8 µg/mL. condition met

Determine if O=C(O)[C@@H](Cc1ccccc1)N1C(=O)/C(=C/c2cccc(Oc3cccc(Cl)c3)c2)SC1=S shows MIC strictly lower than 8 µg/mL. condition met

====

test system: Staphylococcus aureus; assay: Antibacterial activity against methicillin-resistant Staphylococcus aureus CA ATCC BAA-1680 by microdilution technique; format: functional
endpoint.name: MIC (µg/mL)
Write it as a number; the unit µg/mL goes unstated.

// solved cases for MIC follow
compound.structure.string	study.target	unit.info	MIC
O=C(O)[C@H](Cc1ccccc1)N1C(=O)/C(=C/c2ccccc2OCc2ccccc2)SC1=S	Staphylococcus aureus	µg/mL	7.8
COc1ccc(Oc2cccc(/C=C3\SC(=S)N([C@@H](Cc4ccccc4)C(=O)O)C3=O)c2)cc1	Staphylococcus aureus	µg/mL	15.6

Requested read-out MIC, target or system Staphylococcus aureus, entry O=C(O)[C@H](Cc1ccccc1)N1C(=O)/C(=C/c2cccc(OCC3CC3)c2)SC1=S 15.6

Param readout = MIC; param system = Staphylococcus aureus; param query = O=C(O)[C@@H](Cc1ccccc1)N1C(=O)/C(=C/c2cccc(Oc3ccc(Cl)c(Cl)c3)c2)SC1=S ; response: value 3.9

====

system: Staphylococcus aureus; assay: Antibacterial activity against methicillin-resistant Staphylococcus aureus CA ATCC BAA-1680 by microdilution technique; format: functional
endpoint.name: log10 of MIC (log10 of the value in µg/mL)
On a log10 scale: recorded MIC, unit µg/mL.

Example results:
compound.structure.string	study.target	log10 of MIC
O=C(O)[C@H](Cc1ccccc1)N1C(=O)/C(=C/c2cccc(Oc3cccc(F)c3)c2)SC1=S	Staphylococcus aureus	1.49
O=C(O)[C@H](Cc1ccccc1)N1C(=O)/C(=C/c2ccccc2-c2ccccc2)SC1=S	Staphylococcus aureus	0.89
O=C(O)[C@H](Cc1ccccc1)N1C(=O)/C(=C/c2cccc(Cc3ccc(Cl)c(Cl)c3)c2)SC1=S	Staphylococcus aureus	1.49

Would you kindly share the measured log10 of MIC for O=C(c1ccccc1)c1cccc(/C=C2\SC(=S)N([C@@H](Cc3ccccc3)C(=O)O)C2=O)c1 ? 0.59

Recorded log10 of MIC for O=C(O)[C@H](Cc1ccccc1)N1C(=O)/C(=C/c2cccc(-c3cncnc3)c2)SC1=S , please? 2.10

====

tested on: Staphylococcus aureus; test: Antibacterial activity against methicillin-resistant Staphylococcus aureus ATCC 700787 by microdilution technique; assay type: functional
endpoint.name: log10 of MIC (log10 of the value in µg/mL)
Remember, log10 of MIC, in µg/mL.

compound.structure.string	log10 of MIC
O=C(O)[C@H](Cc1ccccc1)N1C(=O)/C(=C/c2cccc(Cc3ccccc3)c2)SC1=S	0.59
O=C(O)[C@H](Cc1ccccc1)N1C(=O)/C(=C/c2cccc(OCCc3ccccc3)c2)SC1=S	1.49
O=C(O)[C@H](Cc1ccccc1)N1C(=O)/C(=C/c2cccc(OCC3CC3)c2)SC1=S	1.19

Here's the next entry for you.
Param readout = log10 of MIC; param system = Staphylococcus aureus; param query = O=C(O)[C@H](Cc1ccccc1)N1C(=O)/C(=C/c2cccc(Cc3ccc(Cl)c(Cl)c3)c2)SC1=S ; response: value 1.80

====

test system: Staphylococcus aureus; experiment: Antibacterial activity against methicillin-resistant Staphylococcus aureus CA ATCC BAA-1680 by microdilution technique; format: functional
endpoint.name: log10 of MIC (log10 of the value in µg/mL)
A difference of one corresponds to tenfold MIC; all values are log10 with MIC in µg/mL.

Some compounds with known log10 of MIC results, for comparison:
compound	observed.result
O=C(O)[C@H](Cc1ccccc1)N1C(=O)/C(=C/c2cccc(Oc3cccc(Cl)c3)c2)SC1=S	1.19
O=C(O)[C@H](Cc1ccccc1)N1C(=O)/C(=C/c2ccccc2Oc2ccc(Cl)c(Cl)c2)SC1=S	0.59
O=C(O)[C@H](Cc1ccccc1)N1C(=O)/C(=C/c2cccc(-c3nccs3)c2)SC1=S	1.49

I am curious: what log10 of MIC value has been reported for O=C(O)[C@H](Cc1ccccc1)N1C(=O)/C(=C/c2ccccc2OCCc2ccccc2)SC1=S ? 0.89

Query (compound): O=C(O)[C@H](Cc1ccccc1)N1C(=O)/C(=C/c2ccccc2Cc2ccccc2)SC1=S ; field requested: log10 of MIC 0.59

Tell me the measured log10 of MIC of CC1(C)S[C@@H]2[C@H](NC(=O)Cc3ccccc3)C(=O)N2[C@H]1C(=O)O [PENICILLIN G] , please. 2.10

Which log10 of MIC value belongs to O=C(O)[C@H](Cc1ccccc1)N1C(=O)/C(=C/c2cccc(OCCc3ccccc3)c2)SC1=S ? 1.19

Give its log10 of MIC value. Item: O=C(O)[C@H](Cc1ccccc1)N1C(=O)/C(=C/c2cccc(Oc3ccc(F)cc3)c2)SC1=S 0.89

Fill in: log10 of MIC of O=C(O)[C@H](Cc1ccccc1)N1C(=O)/C(=C/c2cccc(Oc3ccc(Cl)c(Cl)c3)c2)SC1=S is ___ 0.29

Field request: log10 of MIC | item: O=C(O)[C@H](Cc1ccccc1)N1C(=O)/C(=C/c2cccc(Oc3ccc(Cl)cc3)c2)SC1=S 1.19

For the compound shown here, O=C(O)[C@@H](Cc1ccccc1)N1C(=O)/C(=C/c2cccc(Oc3cccc(Cl)c3)c2)SC1=S , give the reported log10 of MIC. 0.29

====

system: Staphylococcus aureus; assay: Antibacterial activity against methicillin-resistant Staphylococcus aureus ATCC 700787 by microdilution technique; format: functional
We begin with a simple list: items and their reported log10 of MIC.
Recorded MIC (log10, µg/mL)

compound.structure.string	observed.result
O=C(O)[C@@H](Cc1ccccc1)N1C(=O)/C(=C/c2cccc(Oc3ccccc3)c2)SC1=S	0.59
O=C(O)c1cn(C2CC2)c2cc(N3CCNCC3)c(F)cc2c1=O	1.80
O=C(O)[C@H](Cc1ccccc1)N1C(=O)/C(=C/c2cccc(-c3ccc(Cl)c(Cl)c3)c2)SC1=S	0.59
CN[C@H](CC(C)C)C(=O)N[C@H]1C(=O)N[C@@H](CC(N)=O)C(=O)N[C@H]2C(=O)N[C@H]3C(=O)N[C@H](C(=O)N[C@H](C(=O)O)c4cc(O)cc(O)c4-c4cc3ccc4O)[C@H](O)c3ccc(c(Cl)c3)Oc3cc2cc(c3O[C@@H]2O[C@H](CO)[C@@H](O)[C@H](O)[C@H]2O[C@H]2C[C@](C)(N)[C@H](O)[C@H](C)O2)Oc2ccc(cc2Cl)[C@H]1O	0.29
O=C(O)[C@H](Cc1ccccc1)N1C(=O)/C(=C/c2cccc(Oc3cccc(F)c3)c2)SC1=S	1.49

For O=C(O)[C@H](Cc1ccccc1)N1C(=O)/C(=C/c2cccc(-c3cncnc3)c2)SC1=S , what is its reported log10 of MIC? 2.10

Which log10 of MIC value belongs to COc1ccc(Oc2cccc(/C=C3\SC(=S)N([C@@H](Cc4ccccc4)C(=O)O)C3=O)c2)cc1 ? 0.89

Which log10 of MIC reading was recorded for the compound O=C(O)[C@H](Cc1ccccc1)N1C(=O)/C(=C/c2ccc(Oc3ccccc3)cc2)SC1=S ? 0.89

Which log10 of MIC value is on record for O=C(O)[C@H](Cc1ccccc1)N1C(=O)/C(=C/c2ccccc2OCCc2ccccc2)SC1=S ? 1.19

For the compound shown here, O=C(O)[C@H](Cc1ccccc1)N1C(=O)/C(=C/c2cccc(Oc3ccc(F)cc3)c2)SC1=S , give the reported log10 of MIC. 0.89

Given the entry O=C(O)[C@@H](Cc1ccccc1)N1C(=O)/C(=C/c2cccc(Oc3ccc(Cl)c(Cl)c3)c2)SC1=S , report its measured log10 of MIC. 1.19

Look up log10 of MIC: O=C(O)[C@H](Cc1ccccc1)N1C(=O)/C(=C/c2cccc(OCc3ccccc3)c2)SC1=S 0.59

====

test system: Staphylococcus aureus; assay: Antibacterial activity against methicillin-resistant Staphylococcus aureus ATCC 700787 by microdilution technique; assay type: functional
endpoint.name: MIC (µg/mL)
Give the quantity in µg/mL, number only.

The cases that follow already have their MIC on record.
compound.structure.string	study.target	endpoint.name	unit.info	observed.result
O=C(O)[C@H](Cc1ccccc1)N1C(=O)/C(=C/c2cccc(Oc3cccc(Cl)c3)c2)SC1=S	Staphylococcus aureus	MIC	µg/mL	15.6
O=C(O)[C@@H](Cc1ccccc1)N1C(=O)/C(=C/c2cccc(Oc3ccc(Cl)cc3)c2)SC1=S	Staphylococcus aureus	MIC	µg/mL	3.9
O=C(O)[C@H](Cc1ccccc1)N1C(=O)/C(=C/c2cccc(-c3ccccc3)c2)SC1=S	Staphylococcus aureus	MIC	µg/mL	1.95
O=C(O)[C@H](Cc1ccccc1)N1C(=O)/C(=C/c2cccc(Oc3ccc(Cl)cc3)c2)SC1=S	Staphylococcus aureus	MIC	µg/mL	15.6
O=C(O)[C@H](Cc1ccccc1)N1C(=O)/C(=C/c2ccccc2Oc2ccc(Cl)c(Cl)c2)SC1=S	Staphylococcus aureus	MIC	µg/mL	3.9

I am curious: what MIC value has been reported for O=C(O)[C@H](Cc1ccccc1)N1C(=O)/C(=C/c2ccccc2OCc2ccccc2)SC1=S ? 15.6

Consider the compound shown here: O=C(O)[C@H](Cc1ccccc1)N1C(=O)/C(=C/c2ccccc2Cc2ccccc2)SC1=S What is its recorded MIC? 7.8

Give the measured MIC of O=C(c1ccccc1)c1cccc(/C=C2\SC(=S)N([C@@H](Cc3ccccc3)C(=O)O)C2=O)c1 . 7.8

Sample O=C(O)[C@@H](Cc1ccccc1)N1C(=O)/C(=C/c2cccc(Oc3ccc(F)cc3)c2)SC1=S — what was its MIC? 1.95

Can you look up the measured MIC of O=C(O)[C@H](Cc1ccccc1)N1C(=O)/C(=C/c2ccccc2-c2ccccc2)SC1=S for me? 15.6

Numbers sourced from ChEMBL document CHEMBL2429740.
